- Protocol description: Octanol-water partition coefficient, log P by HPLC analysis
- Assay type: physicochemical
Recorded endpoint: logP
Respond using a number only.

COC(=O)CCn1sc(Cl)cc1=O ... 0.69

Let us move to another entry and its logP.
The molecule listed as COC(=O)CCn1c(=O)cc(Cl)[s+]1[O-] (configuration not stated) has a reported logP of 0.08

---

Readings of pIC50 for the listed compounds
- Assay system: Histone acetyltransferase KAT2B (Homo sapiens, UniProt Q92831)
- Sequence (Q92831 whole entry): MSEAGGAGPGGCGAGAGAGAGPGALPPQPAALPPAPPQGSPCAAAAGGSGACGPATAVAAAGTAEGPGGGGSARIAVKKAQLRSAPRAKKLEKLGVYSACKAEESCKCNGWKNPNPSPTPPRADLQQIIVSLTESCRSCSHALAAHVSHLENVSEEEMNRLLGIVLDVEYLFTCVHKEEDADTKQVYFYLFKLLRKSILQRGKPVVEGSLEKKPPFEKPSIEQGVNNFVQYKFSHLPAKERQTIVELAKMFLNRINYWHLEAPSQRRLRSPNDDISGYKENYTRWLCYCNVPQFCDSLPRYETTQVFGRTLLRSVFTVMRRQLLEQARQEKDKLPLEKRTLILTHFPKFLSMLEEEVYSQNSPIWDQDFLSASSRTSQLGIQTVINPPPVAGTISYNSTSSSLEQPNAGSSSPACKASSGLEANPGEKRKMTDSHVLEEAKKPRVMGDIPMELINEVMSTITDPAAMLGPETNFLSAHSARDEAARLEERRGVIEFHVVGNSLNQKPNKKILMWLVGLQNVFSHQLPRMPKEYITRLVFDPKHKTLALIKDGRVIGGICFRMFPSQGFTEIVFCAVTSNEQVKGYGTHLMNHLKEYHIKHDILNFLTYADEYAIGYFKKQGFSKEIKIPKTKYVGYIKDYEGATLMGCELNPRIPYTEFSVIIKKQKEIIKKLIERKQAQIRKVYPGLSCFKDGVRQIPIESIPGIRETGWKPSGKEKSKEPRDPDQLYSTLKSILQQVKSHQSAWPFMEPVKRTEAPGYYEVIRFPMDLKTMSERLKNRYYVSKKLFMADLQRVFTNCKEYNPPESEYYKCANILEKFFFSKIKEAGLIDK
- Protocol description: Inhibition of human recombinant histone acetyltransferase PCAF assessed as CoA-SH activity preincubated for 15 mins by CPM fluorescent assay
pIC50: −log10 of the molar value.

Solved entries (count: 3):
COC(=O)CCn1sc(Cl)c(Cl)c1=O ... 5.59
CCn1sc(Cl)c(Cl)c1=O ... 5.62
COC(=O)CCn1c(=O)c(C)c(Cl)[s+]1[O-] (stereo not given) ... < 5.00

The compound listed as CC(C)(C)n1c(=O)cc(Cl)[s+]1[O-] (stereo not given) has a reported pIC50 of < 5.00

The compound listed as `COC(=O)CCn1sc(Cl)c(C)c1=O` has a reported pIC50 of < 5.00

The compound listed as CCCCCCCCCCCCSc1cc(=O)n(CCC(=O)OC)[s+]1[O-] (stereo not given) has a reported pIC50 of < 5.00

The compound listed as CCn1c(=O)c(Cl)c(Cl)[s+]1[O-] (stereo not given) has a reported pIC50 of < 5.00

The compound listed as CCn1c(=O)c(C)c(Cl)[s+]1[O-] (stereo not given) has a reported pIC50 of < 5.00

The compound listed as CCn1c(=O)cc(Cl)[s+]1[O-] (stereo not given) has a reported pIC50 of < 5.00

The compound listed as CCCCCCCCCCCCSc1cc(=O)n(C(C)(C)C)[s+]1[O-] (stereo not given) has a reported pIC50 of < 5.00
